Taken from paper PMC11396751.

- Tested on: A549 cells
- experiment-summary: MTT anti-proliferative assay, A549
- Assay type: cell-based, human
- study-conditions: Homo sapiens, A549; MTT, 48 h; means ± SD of three experiments
pIC50: −log10 of the molar value.
measured-attribute: pIC50

| molecule | measured-attribute | reading |
| --- | --- | --- |
| C=C1C(=O)C23C(=O)OC45CCC(C)(C)C6C(OC(=O)CCC(=O)NCc7ccc(Cl)cc7)OCC64C2CCC1C3O5 (single isomer, unassigned; ent-6) [Compound 7f] | pIC50 | 5.13 |
| C=C1C(=O)C23C(=O)OC45CCC(C)(C)C6C(OC(=O)N(CCCl)CCCl)OCC64C2CCC1C3O5 (single isomer, unassigned; ent-6) [Compound 5d] | pIC50 | 5.06 |
| C=C1C(=O)C23C(=O)OC45CCC(C)(C)C6C(OC(=O)CCC(=O)NCc7ccc(OC)cc7)OCC64C2CCC1C3O5 (single isomer, unassigned; ent-6) [Compound 7c] | pIC50 | 5.08 |
| C=C1C(=O)C23C(=O)OC45CCC(C)(C)C6C(OC(=O)CCC(=O)NCc7ccc(C)cc7)OCC64C2CCC1C3O5 (single isomer, unassigned; ent-6) [Compound 7b] | pIC50 | 5.13 |
| C=C1C(=O)C23C(=O)OC45CCC(C)(C)C6C(OC(=O)CCC(=O)NCc7ccccc7)OCC64C2CCC1C3O5 (single isomer, unassigned; ent-6) [Compound 7a] | pIC50 | 4.99 |
